- Protocol: NCI Yeast Anticancer Drug Screen. Data for the sgs1 mgt1 strain (AID 161);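 note: 0% = growth of cultures given vehicle only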
- Measurement Setup: S. cerevisiae sgs1 mgt1 strain, at 50.0 µM, hits give high values
The panel holds about 79,000 compounds, 15% with a hit somewhere; the sample as a whole holds those more often.
Quantity Kind: growth inhibition (%)
The reply should be a number in %, with the unit left off.

Worked cases, growth inhibition given:
| Compound | growth inhibition (%) |
| --- | --- |
| CCCCCCCCP(=O)(O)OP(=O)(O)OCC1OC(n2ccc(N)nc2=O)C(O)C1O (configuration not stated) | -9.55 |
| CCC1(CCC(C)C)C(=O)NC(=NCCCC(N)C(=O)O)NC1=O (configuration not stated) | 7.6 |
| Cc1ccccc1NC(N)=S | -8.2 |

growth inhibition recorded for this compound, Cc1ccc([NH-])cc1.Cc1ccc([NH-])cc1.[Cl][Pt+2][Cl] , is 3.95

Lookup result for COc1ccc2c(c1OC)C[N+]1(C)CCc3cc4c(cc3C1=C2)OCO4 (configuration not stated) ; measured growth inhibition: -12.8

growth inhibition reported for this compound OCC1CCCN2CCCCC12 (configuration not stated) : -4.2

Form: compound = CCOC(=O)N(NC(=O)c1ccc(N(CCCl)CCCl)cc1)C(C)=O ; growth inhibition = 3.15
